melting point reference

Below, each entry is followed by its recorded melting point result.
Compound: COC(C)C(=O)NCc1ccc(-c2noc(C(F)(F)F)n2)cc1 (centres unmarked)
melting point: 94 to 100 °C
--
Compound: CCC(=O)NCc1ccc(-c2noc(C(F)(F)F)n2)cc1Cl
melting point: 126 to 130 °C
--
Compound: CON(C)C(=O)NCc1ccc(-c2noc(C(F)(F)F)n2)cc1
melting point: 90.2 to 93.8 °C
--
Compound: COCCC(=O)NC(C)(C)c1ccc(-c2noc(C(F)(F)F)n2)cc1
melting point: 94 to 103 °C

// moving on: another record for melting point
Query CC(OC(F)F)C(=O)NCc1ccc(-c2noc(C(F)(F)F)n2)cc1 (centres unmarked) yields melting point of 66 to 70 °C

----------
melting point reference

Compound: CCC(=O)NCc1ccc(-c2noc(C(F)(F)F)n2)cc1F [Compound 1.26]
Readout kind: melting point
Result: 99 to 110 °C

Query COCC(=O)NCc1ccc(-c2noc(C(F)(F)F)n2)cc1 [Compound 1.25] yields melting point of 127 to 128 °C

Query CCCNC(=O)NCc1ccc(-c2noc(C(F)(F)F)n2)cc1 [Compound 3.6] yields melting point of 174.1 to 176.4 °C

Query CCC(=O)NCC(F)c1ccc(-c2noc(C(F)(F)F)n2)cc1 (centres unmarked) [Compound 1.107] yields melting point of 118 to 128 °C

Query CNC(=O)NCc1ccc(-c2noc(C(F)(F)F)n2)cc1 [Compound 3.4] yields melting point of 198 to 201 °C

----------
melting point reference

Below, each entry is followed by its recorded melting point result.
Compound: COCCOC(=O)NCc1ccc(-c2noc(C(F)(F)F)n2)cc1
melting point: 82 to 85 °C

Compound: CCOCCOC(=O)NCc1ccc(-c2noc(C(F)(F)F)n2)cc1C(F)(F)F
melting point: 60 to 66 °C

Compound: CON(C)C(=O)NC1(c2ccc(-c3noc(C(F)(F)F)n3)cc2)CC1
melting point: 81 to 83 °C

Compound: CON(C)C(=O)NC(C)(C)c1ccc(-c2noc(C(F)(F)F)n2)cc1
melting point: 78 to 83 °C

Compound: COCCC(=O)NC1(c2ccc(-c3noc(C(F)(F)F)n3)cc2)CC1
melting point: 113 to 118 °C

Query CC(C)(C)C(=O)NCc1ccc(-c2noc(C(F)(F)F)n2)cc1 yields melting point of 120 to 127 °C

Query CCC(=O)NCc1ccc(-c2noc(C(F)(F)F)n2)cc1C(F)(F)F yields melting point of 100 to 102 °C

Query COC(=O)NCc1ccc(-c2noc(C(F)(F)F)n2)cc1 yields melting point of 116 to 119 °C

Query CCC(=O)NCc1ccc(-c2noc(C(F)(F)F)n2)c(F)c1F yields melting point of 112 to 118 °C

----------
pest or weed control at 200 ppm reference
System: Puccinia recondita f. Sp. Tritici
Assay: Puccinia recondita f. sp. tritici / wheat / leaf disc preventative (brown rust)
Format: in vivo
Settings: foliar, 200 ppm in the applied formulation, wheat leaf segments cv. Kanzler, preventative (inoculated 1 day after application), compared to untreated, read-out: disease control

Below, each entry is followed by its recorded pest or weed control at 200 ppm result.
Compound: COCC(=O)NC(C)(C)c1ccc(-c2noc(C(F)(F)F)n2)cc1
pest or weed control at 200 ppm: ≥ 80%

Compound: CCC(=O)NC(C)(C)c1ccc(-c2noc(C(F)(F)F)n2)cc1
pest or weed control at 200 ppm: ≥ 80%

Compound: CCC(C)(CC)C(=O)NCc1ccc(-c2noc(C(F)(F)F)n2)cc1
pest or weed control at 200 ppm: ≥ 80%

Compound: CCN(CC)C(=O)NCc1ccc(-c2noc(C(F)(F)F)n2)cc1
pest or weed control at 200 ppm: ≥ 80%

Compound: COCCC(=O)NCc1ccc(-c2noc(C(F)(F)F)n2)cc1F
pest or weed control at 200 ppm: ≥ 80%

Compound: O=C(CC(F)(F)F)NCCc1ccc(-c2noc(C(F)(F)F)n2)cc1
pest or weed control at 200 ppm: ≥ 80%

Compound: O=C(NCc1ccc(-c2noc(C(F)(F)F)n2)cc1)C(F)(F)F
pest or weed control at 200 ppm: ≥ 80%

Compound: O=C(NCc1ccc(-c2noc(C(F)(F)F)n2)cc1)OCCF
pest or weed control at 200 ppm: ≥ 80%

// moving on: another record for pest or weed control at 200 ppm
Query COCCC(=O)NCc1ccc(-c2noc(C(F)(F)F)n2)cc1 yields pest or weed control at 200 ppm of ≥ 80%

----------
melting point reference

Compound: COCC(=O)NC1(c2ccc(-c3noc(C(F)(F)F)n3)cc2)CC1
melting point: 95 to 99 °C

Compound: CCC(=O)NCc1ccc(-c2noc(C(F)(F)F)n2)cc1OC
melting point: 163 to 165 °C

Compound: CC(C)(O)C(=O)NCc1ccc(-c2noc(C(F)(F)F)n2)cc1
melting point: 95 to 98 °C

Compound: CCC(=O)NC(C)(C)c1ccc(-c2noc(C(F)(F)F)n2)cc1
melting point: 142 to 146 °C

// moving on: another record for melting point
Query CC(O)C(=O)NCc1ccc(-c2noc(C(F)(F)F)n2)cc1 (centres unmarked) yields melting point of 90 to 94 °C

----------
pest or weed control at 200 ppm reference
System: Phakopsora pachyrhizi
Assay: Phakopsora pachyrhizi / soybean / leaf disc preventative (Asian soybean rust)
Format: in vivo
Settings: foliar, 200 ppm in the applied formulation, soybean leaf disks, compared to untreated, read-out: disease control

Below, each entry is followed by its recorded pest or weed control at 200 ppm result.
Compound: C=C(C)C(=O)NCc1ccc(-c2noc(C(F)(F)F)n2)cc1
Assayed system: Phakopsora pachyrhizi
Readout kind: pest or weed control at 200 ppm
Result: ≥ 80%

Compound: CCC(C)NC(=O)NCc1ccc(-c2noc(C(F)(F)F)n2)cc1 (stereo not shown)
Assayed system: Phakopsora pachyrhizi
Readout kind: pest or weed control at 200 ppm
Result: ≥ 80%

Compound: COC(C)(C)C(=O)NCc1ccc(-c2noc(C(F)(F)F)n2)cc1
Assayed system: Phakopsora pachyrhizi
Readout kind: pest or weed control at 200 ppm
Result: ≥ 80%

Compound: CCCC(=O)NCc1ccc(-c2noc(C(F)(F)F)n2)c(F)c1
Assayed system: Phakopsora pachyrhizi
Readout kind: pest or weed control at 200 ppm
Result: ≥ 80%

Compound: CCC(C)C(=O)NCc1ccc(-c2noc(C(F)(F)F)n2)c(F)c1 (stereo not shown)
Assayed system: Phakopsora pachyrhizi
Readout kind: pest or weed control at 200 ppm
Result: ≥ 80%

Compound: CCC(=O)NCc1ccc(-c2noc(C(F)(F)F)n2)c(F)c1F
Assayed system: Phakopsora pachyrhizi
Readout kind: pest or weed control at 200 ppm
Result: ≥ 80%

Compound: CC(C)COC(=O)NCc1ccc(-c2noc(C(F)(F)F)n2)cc1
Assayed system: Phakopsora pachyrhizi
Readout kind: pest or weed control at 200 ppm
Result: ≥ 80%

Compound: CC(C)NC(=O)NCc1ccc(-c2noc(C(F)(F)F)n2)cc1
Assayed system: Phakopsora pachyrhizi
Readout kind: pest or weed control at 200 ppm
Result: ≥ 80%

Query COCCC(=O)NC(C)(C)c1ccc(-c2noc(C(F)(F)F)n2)cc1 yields pest or weed control at 200 ppm of ≥ 80%

Query C#CCCC(=O)NCc1ccc(-c2noc(C(F)(F)F)n2)cc1 yields pest or weed control at 200 ppm of ≥ 80%

Query CC(=O)CC(C)C(=O)NCc1ccc(-c2noc(C(F)(F)F)n2)cc1 (stereo not shown) yields pest or weed control at 200 ppm of ≥ 80%

Query CCC(=O)NCCc1ccc(-c2noc(C(F)(F)F)n2)cc1 yields pest or weed control at 200 ppm of ≥ 80%

Query CC(=O)NCc1ccc(-c2noc(C(F)(F)F)n2)cc1F yields pest or weed control at 200 ppm of ≥ 80%

Query CC(C)OC(=O)NCc1ccc(-c2noc(C(F)(F)F)n2)cc1 yields pest or weed control at 200 ppm of ≥ 80%

Query COC(C)C(=O)NCc1ccc(-c2noc(C(F)(F)F)n2)cc1 (stereo not shown) yields pest or weed control at 200 ppm of ≥ 80%

Query O=C(NCc1ccc(-c2noc(C(F)(F)F)n2)cc1)OCCCl yields pest or weed control at 200 ppm of ≥ 80%

Query O=C(COC(F)F)NCc1ccc(-c2noc(C(F)(F)F)n2)cc1 yields pest or weed control at 200 ppm of ≥ 80%

Query CCC(C)C(=O)NCc1ccc(-c2noc(C(F)(F)F)n2)cc1F (stereo not shown) yields pest or weed control at 200 ppm of ≥ 80%

Query C=CCCC(=O)NCc1ccc(-c2noc(C(F)(F)F)n2)cc1 yields pest or weed control at 200 ppm of ≥ 80%

----------
melting point reference

Compound: COC(=O)NCCc1ccc(-c2noc(C(F)(F)F)n2)cc1 [Compound 2.36]
Readout kind: melting point
Result: 84.8 to 86.5 °C
//
Compound: CCOC(=O)NCCc1ccc(-c2noc(C(F)(F)F)n2)cc1 [Compound 2.5]
Readout kind: melting point
Result: 92 to 96 °C
//
Compound: CCC(=O)NCc1ccc(-c2noc(C(F)(F)F)n2)cc1C [Compound 1.81]
Readout kind: melting point
Result: 140 to 143 °C
//
Compound: CCC(=O)NC1(c2ccc(-c3noc(C(F)(F)F)n3)cc2)CC1 [Compound 1.99]
Readout kind: melting point
Result: 121 to 128 °C
//
Compound: CCC(=O)NCc1ccc(-c2noc(C(F)(F)F)n2)c(F)c1 [Compound 1.34]
Readout kind: melting point
Result: 108 to 110 °C
//
Compound: C#CC(C)(C)C(=O)NCc1ccc(-c2noc(C(F)(F)F)n2)cc1 [Compound 1.3]
Readout kind: melting point
Result: 55 to 60 °C
//
Compound: COCCNC(=O)NCc1ccc(-c2noc(C(F)(F)F)n2)cc1 [Compound 3.3]
Readout kind: melting point
Result: 152 to 155 °C
//
Compound: COC(C)(C)C(=O)NCc1ccc(-c2noc(C(F)(F)F)n2)cc1 [Compound 1.103]
Readout kind: melting point
Result: 77 to 80 °C

Query O=C(CO)NCc1ccc(-c2noc(C(F)(F)F)n2)cc1 [Compound 1.27] yields melting point of 107 to 112 °C

Query COC(C)C(=O)NCc1ccc(-c2noc(C(F)(F)F)n2)nc1 (stereo not shown) [Compound 1.105] yields melting point of 99 to 103 °C

Query CCCOC(=O)NCc1ccc(-c2noc(C(F)(F)F)n2)cc1 [Compound 2.6] yields melting point of 107.8 to 109.7 °C

Query O=C(COC(F)F)NCc1ccc(-c2noc(C(F)(F)F)n2)cc1 [Compound 1.97] yields melting point of 92 to 100 °C

Query CON(C)C(=O)NCCc1ccc(-c2noc(C(F)(F)F)n2)cc1 [Compound 3.5] yields melting point of 80 to 84 °C

Data credit: patent US10501425B2
